Just for reference, ChEMBL document CHEMBL1799933 is where these values come from.

assay: Plasma protein binding in rat serum by equilibrium dialysis method; format: ADME, cell-free; conditions: read-out: PPB (converted)
Category key, based on recorded fraction unbound: bottom bin = under 0.1, middle bin = from 0.1 up to 0.3, top bin = 0.3 and over

Consider the following illustrative entries.
Compound	Assigned class
N#CC1(c2ccccn2)CCN(Cc2cc(C(=O)O)c(=O)n3ccccc23)CC1 [MSD-M1PAM]	top bin
N#CC1(c2ccccc2)CCN(Cc2cc(C(=O)O)c(=O)n3ccccc23)CC1	middle bin
Cc1ccnc(C2(C#N)CCN(Cc3cc(C(=O)O)c(=O)n4ccccc34)CC2)c1	top bin

**Query** Which category fits this record: "Cc1ccc(C2(C#N)CCN(Cc3cc(C(=O)O)c(=O)n4ccccc34)CC2)nc1"
**Result** top bin

**Query** Try this compound next: "COc1ccnc(C2(C#N)CCN(Cc3cc(C(=O)O)c(=O)n4ccccc34)CC2)c1"
**Result** top bin

**Query** Try this compound next: "N#CC1(c2cccc(Cl)n2)CCN(Cc2cc(C(=O)O)c(=O)n3ccccc23)CC1"
**Result** middle bin

**Query** Try this compound next: "Cc1ccccc1C1(C#N)CCN(Cc2cc(C(=O)O)c(=O)n3ccccc23)CC1"
**Result** bottom bin

**Query** Try this compound next: "Cc1cccc(C2(C#N)CCN(Cc3cc(C(=O)O)c(=O)n4ccccc34)CC2)c1"
**Result** bottom bin
